- target-desc: AR protein (Homo sapiens, UniProt P10275)
- Construct: degradation activity of the compounds disclosed in the present disclosure on AR protein in VCaP cells; host or cells: VCaP
- Sequence (P10275 1-920): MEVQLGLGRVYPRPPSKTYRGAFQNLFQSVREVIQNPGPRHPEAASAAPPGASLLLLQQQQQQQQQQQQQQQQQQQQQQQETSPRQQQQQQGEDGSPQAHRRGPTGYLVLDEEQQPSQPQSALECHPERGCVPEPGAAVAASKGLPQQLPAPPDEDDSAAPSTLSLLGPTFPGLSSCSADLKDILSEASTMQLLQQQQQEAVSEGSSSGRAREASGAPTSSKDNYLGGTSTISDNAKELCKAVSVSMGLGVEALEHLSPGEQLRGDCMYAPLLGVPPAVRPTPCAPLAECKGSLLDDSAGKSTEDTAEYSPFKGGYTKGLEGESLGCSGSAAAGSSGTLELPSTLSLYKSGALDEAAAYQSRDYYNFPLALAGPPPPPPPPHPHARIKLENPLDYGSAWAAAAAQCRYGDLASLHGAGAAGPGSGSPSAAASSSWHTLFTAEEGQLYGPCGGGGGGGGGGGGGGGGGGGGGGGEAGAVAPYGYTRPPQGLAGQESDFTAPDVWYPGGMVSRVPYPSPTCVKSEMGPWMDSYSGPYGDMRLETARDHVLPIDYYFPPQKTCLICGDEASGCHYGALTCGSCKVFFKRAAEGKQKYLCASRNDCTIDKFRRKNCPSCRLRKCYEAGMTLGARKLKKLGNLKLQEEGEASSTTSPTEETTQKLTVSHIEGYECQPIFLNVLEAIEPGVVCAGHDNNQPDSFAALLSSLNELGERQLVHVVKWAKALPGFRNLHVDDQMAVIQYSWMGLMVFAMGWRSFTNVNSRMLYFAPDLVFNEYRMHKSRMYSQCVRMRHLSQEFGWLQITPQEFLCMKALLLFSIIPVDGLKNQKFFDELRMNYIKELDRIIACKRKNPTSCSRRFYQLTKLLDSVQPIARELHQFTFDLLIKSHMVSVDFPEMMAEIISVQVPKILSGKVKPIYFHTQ
- experiment: Degradation of AR protein in VCaP cells (Western blot)
- Type: cell-based
- protocol-conditions: compound at 10 nM, 8 hours, read-out: Degradation rate of the AR protein in VCaP cells, 10 nM (%)
Category | rule: reported inhibition at 0.01 µM within range, see 1 = under 30%, 2 = from 30% up to 50%, 3 = 50% and over

Past entries and their recorded results:
Please classify: N#Cc1ccc(O[C@H]2CC[C@H](NC(=O)c3ccc(N4CCC(N5CCC6(CC5)COc5cc7c(cc56)C(=O)N(C5CCC(=O)NC5=O)C7=O)CC4)nn3)CC2)cc1Cl (stereo partly shown) [Compound 48]
3

Please classify: COc1cc(O[C@H]2C(C)(C)[C@H](NC(=O)c3ccc(N4CCC(CN5CCC6(CCc7cc8c(cc7O6)CN(C6CCC(=O)NC6=O)C8=O)CC5)CC4)cc3)C2(C)C)ccc1C#N (stereo partly shown) [Compound 296]
1

Please classify: CCOC1(CN2CCC3(CC2)COc2c3ccc3c2C(=O)N(C2CCC(=O)NC2=O)C3=O)CCN(c2ccc(C(=O)N[C@H]3CC[C@H](Oc4ccc(C#N)c(C(F)(F)F)c4)CC3)nn2)CC1 (stereo partly shown) [Compound 242]
1

Please classify: N#Cc1ccc(O[C@H]2CC[C@H](NC(=O)c3ccc(N4CC(N5CC6(CCc7cc8c(cc7O6)C(=O)N(C6CCC(=O)NC6=O)C8=O)C5)C4)nn3)CC2)cc1Cl (stereo partly shown) [Compound 5]
2

Please classify: N#Cc1ccc(O[C@H]2CC[C@H](NC(=O)c3ccc(N4CC5(CCC(N6CCC7(CCc8ccc9c(c8O7)CN(C7CCC(=O)NC7=O)C9=O)CC6)CC5)C4)nn3)CC2)cc1Cl (stereo partly shown) [Compound 153]
2

New cases:
Please classify: N#Cc1ccc(O[C@H]2CC[C@H](NC(=O)c3ccc(N4CC5(CC(N6CCC7(CC6)COc6cc8c(cc67)C(=O)N(C6CCC(=O)NC6=O)C8=O)C5)C4)nn3)CC2)cc1Cl (stereo partly shown) [Compound 50]
3

Please classify: N#Cc1ccc(O[C@H]2CC[C@H](NC(=O)c3ccc(N4CCC5(CCC(N6CCC7(CC6)COc6cc8c(cc6C7)C(=O)N(C6CCC(=O)NC6=O)C8=O)CC5)CC4)nn3)CC2)cc1Cl (stereo partly shown) [Compound 64]
3

Please classify: N#Cc1ccc(O[C@H]2CC[C@H](NC(=O)c3ccc(N4CCC(F)(CN5CCC6(CC5)COc5cc7c(cc5C6)C(=O)N(C5CCC(=O)NC5=O)C7=O)CC4)nn3)CC2)cc1Cl (stereo partly shown) [Compound 67]
2

Please classify: COc1cc(O[C@H]2C(C)(C)[C@H](NC(=O)c3ccc(N4CCC(C)(CN5CC6(CCc7cc8c(cc7O6)C(=O)N(C6CCC(=O)NC6=O)C8)C5)CC4)cc3)C2(C)C)ccc1C#N (stereo partly shown) [Compound 265]
2
